biological target: human full-length recombinant PKC βII (Homo sapiens); construct: Active human full-length recombinant PKC βII; purchased Invitrogen GmbH, Darmstadt, Germany; experiment: Determination of PKC βII inhibition (Caliper mobility-shift kinase assay, Fluorescein-RFARKGSLRQKNV peptide substrate); assay type: biochemical; conditions: example compounds at a final concentration of 1.14 μM (±0.15 μM)
Sequence (P05771 1-673 isoform P05771-2): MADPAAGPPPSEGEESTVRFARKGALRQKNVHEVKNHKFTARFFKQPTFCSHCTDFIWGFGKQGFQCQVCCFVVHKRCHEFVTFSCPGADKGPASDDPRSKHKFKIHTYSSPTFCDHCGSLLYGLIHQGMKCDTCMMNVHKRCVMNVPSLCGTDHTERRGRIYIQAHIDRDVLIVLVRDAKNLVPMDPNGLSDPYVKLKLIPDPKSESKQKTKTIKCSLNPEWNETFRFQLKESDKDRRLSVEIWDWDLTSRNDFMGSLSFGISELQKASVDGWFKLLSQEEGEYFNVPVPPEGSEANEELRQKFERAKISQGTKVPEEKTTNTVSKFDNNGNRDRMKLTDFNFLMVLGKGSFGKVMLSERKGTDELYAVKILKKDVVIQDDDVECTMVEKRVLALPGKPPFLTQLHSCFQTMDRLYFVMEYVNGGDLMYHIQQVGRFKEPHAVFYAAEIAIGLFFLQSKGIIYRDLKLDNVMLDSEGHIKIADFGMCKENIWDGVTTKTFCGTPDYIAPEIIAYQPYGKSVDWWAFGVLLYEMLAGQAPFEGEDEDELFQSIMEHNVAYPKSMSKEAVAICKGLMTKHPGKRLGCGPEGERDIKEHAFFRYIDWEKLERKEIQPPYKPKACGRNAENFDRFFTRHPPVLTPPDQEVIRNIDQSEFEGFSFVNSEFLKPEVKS
For each of the compounds below, state its inhibition at 1.14 µM.
Enter your answer as a number in %; do not include the unit.

Ask | Look up inhibition at 1.14 µM: Cc1cc(O)ccc1-c1cc(C(=O)NCC2(N)CCCCCC2)c2c(C)n[nH]c2n1
Reply | 85

Ask | Entry O=C(c1cc(-c2ccc(O)cc2)nc2[nH]nc(C(F)(F)F)c12)N1CCC2(CCNCC2)CC1 : reported inhibition at 1.14 µM = ?
Reply | 24

Ask | Which value of inhibition at 1.14 µM has been reported for Cc1cc(O)ccc1-c1cc(C(=O)N2CCNCC2)c2c(C)n[nH]c2n1 in the records?
Reply | 96

Ask | // returns reported inhibition at 1.14 µM for input Cc1n[nH]c2nc(-c3ccc(O)cc3)cc(C(=O)NC3CC4CCC(C3)N4C)c12 (centres unmarked)
Reply | 89

Ask | Given Cc1n[nH]c2nc(-c3ccc(O)cc3)cc(C(=O)N3CCN[C@@H](C)C3)c12 , state its recorded inhibition at 1.14 µM.
Reply | 101

Ask | Can you share its inhibition at 1.14 µM? I mean this compound: Cc1n[nH]c2nc(-c3ccc(O)cc3)cc(C(=O)N3CC4CCCN4CC3c3ccccc3)c12 (centres unmarked)
Reply | 73

Ask | Form field: reported inhibition at 1.14 µM of Cc1n[nH]c2nc(-c3ccc(O)cc3)cc(C(=O)NC3CN4CCC3CC4)c12 (centres unmarked)
Reply | 94

Ask | I have this compound here, Cc1n[nH]c2nc(-c3ccc(O)cc3)cc(C(=O)N3CCNCC3c3cccs3)c12 (centres unmarked) , and I need its recorded inhibition at 1.14 µM.
Reply | 99

Ask | Find the recorded inhibition at 1.14 µM belonging to Cc1n[nH]c2nc(-c3ccc(O)cc3)cc(C(=O)N3CCCC(N)C3)c12 (centres unmarked) and report it.
Reply | 88

Ask | Need inhibition at 1.14 µM of Cc1n[nH]c2nc(-c3ccc(O)cc3)cc(C(=O)N(C)C3CCNCC3)c12 , thanks.
Reply | 88

Ask | Need inhibition at 1.14 µM of Cc1n[nH]c2nc(-c3ccc(O)c(F)c3)cc(C(=O)N3CC[C@H](N)C3)c12 , thanks.
Reply | 77

Ask | Which value of inhibition at 1.14 µM has been reported for O=C(c1cc(-c2ccc(O)cc2)nc2[nH]nc(C3CC3)c12)N1CCNC[C@H]1c1ccccc1 in the records?
Reply | 78

Ask | I'd like to know its inhibition at 1.14 µM. The compound in question is Cc1n[nH]c2nc(-c3cc(F)c(O)c(F)c3)cc(C(=O)N3CCNCC3)c12
Reply | 61

Ask | Recorded inhibition at 1.14 µM of Cc1cc(O)ccc1-c1cc(C(=O)N2CCNCC2c2ccc(C(F)(F)F)cc2)c2c(C)n[nH]c2n1 (centres unmarked) , please.
Reply | 94

Ask | Data request, read-out inhibition at 1.14 µM, for Cc1n[nH]c2nc(-c3ccc(O)cc3)cc(C(=O)N3CCC(CN4CCCCC4)CC3)c12
Reply | 34

Ask | Quick one: inhibition at 1.14 µM of Cc1n[nH]c2nc(-c3ccc(O)cc3)cc(C(=O)N3CCNCC3c3cccc(Br)c3)c12 (centres unmarked) ?
Reply | 99

Ask | What value of inhibition at 1.14 µM has been reported for the following compound? CCCC1(N)CCCN(C(=O)c2cc(-c3ccc(O)cc3)nc3[nH]nc(C)c23)C1 (centres unmarked)
Reply | 70

Ask | Returns the measured inhibition at 1.14 µM for the input compound. Input: Cc1n[nH]c2nc(-c3ccc(O)cc3)cc(C(=O)N3CCNCC3c3ccco3)c12 (centres unmarked)
Reply | 96

Ask | Value lookup for inhibition at 1.14 µM; key = Cc1cc(O)ccc1-c1cc(C(=O)N2CCNCC2(C)C)c2c(C)n[nH]c2n1
Reply | 98

Ask | Which measured inhibition at 1.14 µM value corresponds to Cc1cc(O)ccc1-c1cc(C(=O)N2CCNCC2c2ccc(Br)cc2)c2c(C)n[nH]c2n1 (centres unmarked) ?
Reply | 99

Ask | I'd like to know its inhibition at 1.14 µM. The compound in question is CO[C@H]1CNC[C@@H]1NC(=O)c1cc(-c2ccc(O)cc2)nc2[nH]nc(C)c12 (racemic) [Example 78]
Reply | 99

Ask | Would you kindly share the measured inhibition at 1.14 µM for Cc1n[nH]c2nc(-c3ccc(O)cc3F)cc(C(=O)NCCC(C)(C)N)c12 ?
Reply | 86

Ask | If you can, please state the reported inhibition at 1.14 µM value of Cc1n[nH]c2nc(-c3ccc(O)cc3)cc(C(=O)N3CCCN(C(=O)c4ccncc4)CC3)c12 .
Reply | 39

Ask | So what does the record say about inhibition at 1.14 µM for Cc1n[nH]c2nc(-c3ccc(O)cc3)cc(C(=O)NCCN3CCCC3)c12 ?
Reply | 52

Ask | Look at this compound and give its reported inhibition at 1.14 µM. COc1cccc(C(CN)NC(=O)c2cc(-c3ccc(O)cc3)nc3[nH]nc(C)c23)c1 (centres unmarked)
Reply | 85

Ask | Consider the compound shown here: O=C(c1cc(-c2ccc(O)cc2)nc2[nH]nc(C(F)(F)F)c12)N1CCC2(CCCNC2)C1 (centres unmarked) What is its recorded inhibition at 1.14 µM?
Reply | 20

Ask | Look at this compound and give its reported inhibition at 1.14 µM. CCc1n[nH]c2nc(-c3ccc(O)cc3)cc(C(=O)N3CCC4CNCC43)c12 (centres unmarked)
Reply | 58

Ask | Given Cc1n[nH]c2nc(-c3ccc(O)cc3)cc(C(=O)N3CCNC[C@H]3C(=O)NC(C)(C)C)c12 , state its recorded inhibition at 1.14 µM.
Reply | 95

Ask | Report inhibition at 1.14 µM for Cc1n[nH]c2nc(-c3ccc(O)cc3)cc(C(=O)N3CC[C@@H](N(C)C)C3)c12 please.
Reply | 77

Ask | Data request, read-out inhibition at 1.14 µM, for CCc1n[nH]c2nc(-c3ccc(O)cc3)cc(C(=O)N[C@@H]3CN4CCC3CC4)c12
Reply | 51

Ask | Name the reported inhibition at 1.14 µM value associated with the compound Cc1n[nH]c2nc(-c3ccc(O)cc3)cc(C(=O)N[C@H]3CC[C@H](N)CC3)c12
Reply | 60

Ask | I would be grateful if you could share the reported inhibition at 1.14 µM for Cc1n[nH]c2nc(-c3ccc(O)c(F)c3)cc(C(=O)NCC(C)(c3ccccn3)N3CCCC3)c12 (centres unmarked) .
Reply | 48
